// provenance: patent US20100311107A1

- Test system: E. coli MG1655
- Format: cell-based, Escherichia coli
- Set-up: unit not given here
- Test Context: Table 13, MHB medium
Numbered stars: 1 amine (or outer) side, 2 acyl side, 3 side chain; on linkers, the order of the positions; unused ones are H or OH. Bridge positions count the residues as written; N and C are the ends. Square brackets hold non-standard residues; d marks the D form. Peptide text beside a SMILES is read from it. I, II: the chains in the order shown. Actinocin(9to1) = Cc1c2oc3c(C)ccc(C(=O)[*:1])c3nc-2c(C(=O)[*:2])c(N)c1=O; NMeV = CN[C@H](C(=O)O)C(C)C; Sar = CNCC(=O)O
Experimental Readout: Minimal inhibitory concentrations (MIC90) MG1655
// no unit string in output, number only

Compound	Result Number
COC1=C(N)C(=O)c2nc(-c3nc(C(=O)O)c(C)c(-c4ccc(OC)c(OC)c4O)c3N)ccc2C1=O [Streptonigrin]	8
C[C@H]1[C@H](NC(=O)/C(=N\OC(C)(C)C(=O)O)c2csc(N)n2)C(=O)N1S(=O)(=O)O [Aztreonam]	0.06
CN[C@@H]1[C@H](O)[C@H](NC)[C@H]2O[C@@]3(O)C(=O)C[C@@H](C)O[C@H]3O[C@@H]2[C@H]1O [Spectinomycin]	16
CCn1cc(C(=O)O)c(=O)c2ccc(C)nc21 [Nalidixic Acid]	8
C[C@@H]1O[C@@H]1P(=O)(O)O [Phosphomycin]	32

Reported Minimal inhibitory concentrations (MIC90) MG1655 of CN[C@@H]1[C@@H](O[C@H]2O[C@H](CO)[C@@H](N)[C@H](O)[C@H]2O)OC2C[C@@H](N)[C@@H](O[C@H]3[C@H](O)[C@@H](O)[C@H](N)C[C@@H]3N)OC2[C@@H]1O (some centres unmarked) [Apramycin] : 4

Reported Minimal inhibitory concentrations (MIC90) MG1655 of CC1(C)S[C@@H]2[C@H](NC(=O)[C@H](N)c3ccccc3)C(=O)N2[C@H]1C(=O)O [Ampicillin] : 8

Reported Minimal inhibitory concentrations (MIC90) MG1655 of Cc1c2oc3c(C)ccc(C(=O)N[C@@H]4C(=O)N[C@H](C(C)C)C(=O)N5CCC[C@H]5C(=O)N(C)CC(=O)N(C)[C@@H](C(C)C)C(=O)O[C@@H]4C)c3nc-2c(C(=O)N[C@@H]2C(=O)N[C@H](C(C)C)C(=O)N3CCC[C@H]3C(=O)N(C)CC(=O)N(C)[C@@H](C(C)C)C(=O)O[C@@H]2C)c(N)c1=O [Actinomycin D] (I: T[dV]P[Sar][NMeV] / II: T[dV]P[Sar][NMeV]; ester I:1-I:C, II:1-II:C; linker I:N-II:N via Actinocin(9to1)) : 256
